Target: panel of 255 wild-type kinases (Homo sapiens)
Experiment: Kinase panel profiling at 1 µmol/L (MSA or IMAP), percentage inhibition
Format: biochemical
Settings: kinase EPHA5; 1 µmol/L single concentration; read-out: %-inhibition at 1 µmol/L, EPHA5
Catalogue of inhibition at 1 µM values
Answer format: numeric, % implied, no suffix.

COMPOUND: Cn1cnc2c(F)c(Nc3ccc(Br)cc3Cl)c(C(=O)NOCCO)cc21 [selumetinib]
RESULT UNITS: %
inhibition at 1 µM: -12
//
COMPOUND: FC(F)(F)c1ccc(CNc2ccc(Cc3c[nH]c4ncc(Cl)cc34)cn2)cn1 [pexidartinib]
RESULT UNITS: %
inhibition at 1 µM: 4
//
COMPOUND: CCc1nc(C(N)=O)c(Nc2ccc(N3CCC(N4CCN(C)CC4)CC3)c(OC)c2)nc1NC1CCOCC1 [gilteritinib]
RESULT UNITS: %
inhibition at 1 µM: 52
//
COMPOUND: COc1cc2ncnc(Nc3ccc(F)c(Cl)c3)c2cc1NC(=O)/C=C/CN1CCCCC1 [dacomitinib]
RESULT UNITS: %
inhibition at 1 µM: 34

Query CCN1C(=O)N(c2c(F)c(OC)cc(OC)c2F)Cc2cnc3[nH]c(CN4CCOCC4)cc3c21 [pemigatinib] yields inhibition at 1 µM of -2

----------
Test system: panel of 255 wild-type kinases
Assay: Kinase panel profiling at 1 µmol/L (MSA or IMAP), percentage inhibition
Assay type: biochemical
Details: kinase SRM; 1 µmol/L single concentration
ENDPOINT LABEL: %-inhibition at 1 µmol/L, SRM (%)
Field: numeric (%). Do not append units.

MOLECULE: CCN1CCN(c2ccc(Nc3cc(N(C)C(=O)Nc4c(Cl)c(OC)cc(OC)c4Cl)ncn3)cc2)CC1 [infigratinib]
RECORDED NUMBER: -2.75
//
MOLECULE: COC(=O)N[C@@H](C)CNc1nccc(-c2cn(C(C)C)nc2-c2cc(Cl)cc(NS(C)(=O)=O)c2F)n1 [encorafenib]
RECORDED NUMBER: 85
//
MOLECULE: FC(F)(F)c1ccc(CNc2ccc(Cc3c[nH]c4ncc(Cl)cc34)cn2)cn1 [pexidartinib]
RECORDED NUMBER: 0.409
//
MOLECULE: CCc1nc(C(N)=O)c(Nc2ccc(N3CCC(N4CCN(C)CC4)CC3)c(OC)c2)nc1NC1CCOCC1 [gilteritinib]
RECORDED NUMBER: 23
//
MOLECULE: CCn1c(=O)c(-c2cc(NC(=O)Nc3ccccc3)c(F)cc2Br)cc2cnc(NC)cc21 [ripretinib]
RECORDED NUMBER: 32
//
MOLECULE: Cn1cc(-c2cc3c(N4CCN(c5ncc([C@@](C)(N)c6ccc(F)cc6)cn5)CC4)ncnn3c2)cn1 [avapritinib]
RECORDED NUMBER: 0.441

Then this molecule:
The reported value for CCN1C(=O)N(c2c(F)c(OC)cc(OC)c2F)Cc2cnc3[nH]c(CN4CCOCC4)cc3c21 [pemigatinib] in terms of %-inhibition at 1 µmol/L, SRM is -3.44

----------
Measured inhibition at 1 µM of individual entries
Target: panel of 255 wild-type kinases (Homo sapiens, UniProt Q5VT25)
Sequence (Q5VT25 whole entry): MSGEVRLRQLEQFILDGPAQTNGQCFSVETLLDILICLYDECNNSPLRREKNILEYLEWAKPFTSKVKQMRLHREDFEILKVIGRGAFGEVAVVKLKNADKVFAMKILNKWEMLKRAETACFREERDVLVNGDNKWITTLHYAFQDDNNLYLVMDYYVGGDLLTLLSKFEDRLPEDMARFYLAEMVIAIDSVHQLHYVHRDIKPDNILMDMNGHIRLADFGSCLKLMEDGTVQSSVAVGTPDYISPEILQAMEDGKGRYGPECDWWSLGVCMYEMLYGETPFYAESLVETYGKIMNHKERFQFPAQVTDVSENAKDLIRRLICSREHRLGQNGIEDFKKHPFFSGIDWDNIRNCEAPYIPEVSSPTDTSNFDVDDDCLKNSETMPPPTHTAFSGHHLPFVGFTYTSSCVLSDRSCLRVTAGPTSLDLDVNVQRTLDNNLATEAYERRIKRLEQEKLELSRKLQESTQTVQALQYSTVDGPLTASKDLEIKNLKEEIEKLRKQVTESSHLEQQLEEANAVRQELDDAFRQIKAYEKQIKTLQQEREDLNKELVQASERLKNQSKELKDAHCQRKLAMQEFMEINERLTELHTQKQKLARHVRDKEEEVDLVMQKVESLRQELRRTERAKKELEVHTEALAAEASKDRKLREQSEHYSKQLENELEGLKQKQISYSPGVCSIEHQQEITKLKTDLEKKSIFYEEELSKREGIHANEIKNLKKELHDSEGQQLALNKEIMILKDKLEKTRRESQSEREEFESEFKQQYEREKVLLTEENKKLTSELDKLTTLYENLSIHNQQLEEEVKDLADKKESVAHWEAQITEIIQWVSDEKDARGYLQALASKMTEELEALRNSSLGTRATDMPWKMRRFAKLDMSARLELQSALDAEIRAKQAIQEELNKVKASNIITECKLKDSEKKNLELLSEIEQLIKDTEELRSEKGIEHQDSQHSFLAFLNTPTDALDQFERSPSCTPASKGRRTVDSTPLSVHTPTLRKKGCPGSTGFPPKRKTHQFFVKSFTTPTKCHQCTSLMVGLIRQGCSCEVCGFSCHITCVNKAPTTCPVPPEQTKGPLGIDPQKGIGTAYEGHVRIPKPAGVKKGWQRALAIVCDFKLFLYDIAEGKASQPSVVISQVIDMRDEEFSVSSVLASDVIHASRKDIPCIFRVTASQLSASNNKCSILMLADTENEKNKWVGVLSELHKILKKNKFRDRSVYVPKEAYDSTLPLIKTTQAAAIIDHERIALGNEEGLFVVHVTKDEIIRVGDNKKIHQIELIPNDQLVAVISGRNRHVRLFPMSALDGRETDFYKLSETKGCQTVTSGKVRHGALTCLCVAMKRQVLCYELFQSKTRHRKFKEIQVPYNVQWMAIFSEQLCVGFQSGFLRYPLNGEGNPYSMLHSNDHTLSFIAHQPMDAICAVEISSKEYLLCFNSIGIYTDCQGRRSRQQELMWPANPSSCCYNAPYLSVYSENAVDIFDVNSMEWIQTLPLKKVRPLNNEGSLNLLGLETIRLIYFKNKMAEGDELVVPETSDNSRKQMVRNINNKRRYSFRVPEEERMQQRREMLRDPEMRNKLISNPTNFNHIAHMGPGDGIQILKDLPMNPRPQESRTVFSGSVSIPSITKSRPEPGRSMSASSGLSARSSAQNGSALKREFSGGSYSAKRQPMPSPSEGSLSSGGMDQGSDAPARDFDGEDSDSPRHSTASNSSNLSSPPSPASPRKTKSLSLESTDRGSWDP
Assay: Kinase panel profiling at 1 µmol/L (MSA or IMAP), percentage inhibition
Type: biochemical
Settings: MRCKα; 1 µmol/L single concentration; read-out: %-inhibition, MRCKα
Write the value in % as a bare number.

For orientation, consider the following solved cases.
MOL SMILES: CCn1c(=O)c(-c2cc(NC(=O)Nc3ccccc3)c(F)cc2Br)cc2cnc(NC)cc21
inhibition at 1 µM / %: -1.14
--
MOL SMILES: Cc1cc(Nc2ncnc3ccc(NC4=NC(C)(C)CO4)cc23)ccc1Oc1ccn2ncnc2c1
inhibition at 1 µM / %: 0.364
--
MOL SMILES: O=C(Nc1cnn2ccc(N3CCC[C@@H]3c3cc(F)ccc3F)nc12)N1CC[C@H](O)C1
inhibition at 1 µM / %: 0.38
--
MOL SMILES: Cc1nc(NC(=O)N2CCC[C@H]2C(N)=O)sc1-c1ccnc(C(C)(C)C(F)(F)F)c1
inhibition at 1 µM / %: -2
--
MOL SMILES: Cn1cnc2c(F)c(Nc3ccc(Br)cc3Cl)c(C(=O)NOCCO)cc21
inhibition at 1 µM / %: 2.24
--
MOL SMILES: COc1ccc(CN2C3CC2CN(c2ccc(-c4cc(OCC(C)(C)O)cn5ncc(C#N)c45)cn2)C3)cn1
inhibition at 1 µM / %: -2.65

For record `CO[C@]1(C(=O)N[C@@H](C)c2ccc(-n3cc(F)cn3)nc2)CC[C@H](c2nc(C)cc(Nc3cc(C)[nH]n3)n2)CC1` the listed inhibition at 1 µM is 1.82

The recorded inhibition at 1 µM for entry `Cn1cnc2c(F)c(Nc3ccc(Br)cc3F)c(C(=O)NOCCO)cc21` equals -5.53

----------
Target: panel of 255 wild-type kinases (Homo sapiens, UniProt P06213)
Sequence (P06213 28-1382): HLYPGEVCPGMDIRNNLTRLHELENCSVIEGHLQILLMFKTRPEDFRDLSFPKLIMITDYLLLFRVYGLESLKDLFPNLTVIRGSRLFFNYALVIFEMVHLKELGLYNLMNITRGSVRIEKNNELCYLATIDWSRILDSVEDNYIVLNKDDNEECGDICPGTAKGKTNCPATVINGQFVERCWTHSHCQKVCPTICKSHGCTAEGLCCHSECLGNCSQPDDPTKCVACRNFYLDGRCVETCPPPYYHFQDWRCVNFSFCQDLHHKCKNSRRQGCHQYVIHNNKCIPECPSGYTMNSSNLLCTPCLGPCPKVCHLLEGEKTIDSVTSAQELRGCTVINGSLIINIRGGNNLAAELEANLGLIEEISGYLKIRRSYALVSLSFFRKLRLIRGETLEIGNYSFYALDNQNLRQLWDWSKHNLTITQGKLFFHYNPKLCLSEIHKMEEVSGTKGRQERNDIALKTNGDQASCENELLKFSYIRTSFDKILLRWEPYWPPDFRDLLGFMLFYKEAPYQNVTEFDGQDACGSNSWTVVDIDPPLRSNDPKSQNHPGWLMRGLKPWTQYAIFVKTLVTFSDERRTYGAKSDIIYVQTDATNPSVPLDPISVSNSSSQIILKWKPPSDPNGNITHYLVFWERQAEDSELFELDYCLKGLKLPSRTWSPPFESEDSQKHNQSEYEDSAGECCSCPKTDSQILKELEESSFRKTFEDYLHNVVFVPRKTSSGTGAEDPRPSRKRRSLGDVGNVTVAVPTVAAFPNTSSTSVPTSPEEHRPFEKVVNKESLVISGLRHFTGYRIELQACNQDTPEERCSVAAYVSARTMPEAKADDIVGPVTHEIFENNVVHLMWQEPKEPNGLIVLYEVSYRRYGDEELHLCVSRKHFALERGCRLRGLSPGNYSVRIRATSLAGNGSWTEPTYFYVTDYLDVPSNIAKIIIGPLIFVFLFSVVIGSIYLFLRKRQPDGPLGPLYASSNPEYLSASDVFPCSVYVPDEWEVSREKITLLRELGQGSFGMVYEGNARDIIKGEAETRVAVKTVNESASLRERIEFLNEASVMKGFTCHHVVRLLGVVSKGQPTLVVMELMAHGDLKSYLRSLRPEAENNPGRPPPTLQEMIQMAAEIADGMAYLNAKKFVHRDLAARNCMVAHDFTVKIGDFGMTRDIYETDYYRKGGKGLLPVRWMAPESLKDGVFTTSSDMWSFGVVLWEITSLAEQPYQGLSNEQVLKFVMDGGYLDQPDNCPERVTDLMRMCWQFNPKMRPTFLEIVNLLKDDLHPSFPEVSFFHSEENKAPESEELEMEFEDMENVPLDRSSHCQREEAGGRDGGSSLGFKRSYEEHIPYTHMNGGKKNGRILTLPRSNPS
Assay: Kinase panel profiling at 1 µmol/L (MSA or IMAP), percentage inhibition
Type: biochemical
Details: kinase INSR; 1 µmol/L single concentration; read-out: %-inhibition at 1 µmol/L, INSR
ENDPOINT LABEL: inhibition at 1 µM
Remember to follow the number with its unit.

Solved entries (count: 3):
MOL SMILES: CN1CCN(c2ccc(C(=O)Nc3n[nH]c4ccc(Cc5cc(F)cc(F)c5)cc34)c(NC3CCOCC3)c2)CC1
inhibition at 1 µM: 94%

MOL SMILES: C[C@H](Nc1ncnc2nc[nH]c12)c1cc2cccc(Cl)c2c(=O)n1-c1ccccc1
inhibition at 1 µM: -0.398%

MOL SMILES: COc1cc2ncnc(Nc3ccc(F)c(Cl)c3)c2cc1NC(=O)/C=C/CN1CCCCC1
inhibition at 1 µM: 1.81%

Next, consider the following compound.
Sure, the documented inhibition at 1 µM for `O=C(Nc1cnn2ccc(N3CCC[C@@H]3c3cc(F)ccc3F)nc12)N1CC[C@H](O)C1` is 2%

----------
Target: panel of 255 wild-type kinases (Homo sapiens)
Experiment: Kinase panel profiling at 1 µmol/L (MSA or IMAP), percentage inhibition
Format: biochemical
Conditions: p38γ; 1 µmol/L single concentration; read-out: %-inhibition, p38γ
Here, each record is paired with measured inhibition at 1 µM data.
Hi! Could you send only the number? It should be in %, unit omitted.

COMPOUND: COc1ccc(CN2C3CC2CN(c2ccc(-c4cc(OCC(C)(C)O)cn5ncc(C#N)c45)cn2)C3)cn1 [selpercatinib]
RESULT UNITS: %
inhibition at 1 µM: 0.277

Field inhibition at 1 µM (entry CCN1C(=O)N(c2c(F)c(OC)cc(OC)c2F)Cc2cnc3[nH]c(CN4CCOCC4)cc3c21 [pemigatinib] ) reads 1.73

get_value(item= COc1cc2ncnc(Nc3ccc(F)c(Cl)c3)c2cc1NC(=O)/C=C/CN1CCCCC1 [dacomitinib] , readout=inhibition at 1 µM) returns 0.231

The recorded inhibition at 1 µM for Cc1nc(NC(=O)N2CCC[C@H]2C(N)=O)sc1-c1ccnc(C(C)(C)C(F)(F)F)c1 [alpelisib] is -6

Please fill in: inhibition at 1 µM reported for C=CC(=O)N1CCC([C@@H]2CCNc3c(C(N)=O)c(-c4ccc(Oc5ccccc5)cc4)nn32)CC1 [zanubrutinib] = 4

Consider CCN1CCN(c2ccc(Nc3cc(N(C)C(=O)Nc4c(Cl)c(OC)cc(OC)c4Cl)ncn3)cc2)CC1 [infigratinib] . Its measured inhibition at 1 µM is -3

----------
Molecular target: panel of 255 wild-type kinases (Homo sapiens)
Test: Kinase panel profiling at 1 µmol/L (MSA or IMAP), percentage inhibition
Assay type: biochemical
Conditions: kinase PIM2; 1 µmol/L single concentration; read-out: %-inhibition at 1 µmol/L, PIM2
ENDPOINT LABEL: inhibition at 1 µM (%)
Give just the number in %; leave the unit off.

MOL SMILES: C[C@H](Nc1ncnc2nc[nH]c12)c1cc2cccc(Cl)c2c(=O)n1-c1ccccc1
RESULT UNITS: %
inhibition at 1 µM: -6.49
--
MOL SMILES: Cn1cnc2c(F)c(Nc3ccc(Br)cc3Cl)c(C(=O)NOCCO)cc21
RESULT UNITS: %
inhibition at 1 µM: -3.45
--
MOL SMILES: CCN1CCN(c2ccc(Nc3cc(N(C)C(=O)Nc4c(Cl)c(OC)cc(OC)c4Cl)ncn3)cc2)CC1
RESULT UNITS: %
inhibition at 1 µM: -7

The molecule listed as `O=C(Nc1cnn2ccc(N3CCC[C@@H]3c3cc(F)ccc3F)nc12)N1CC[C@H](O)C1` shows inhibition at 1 µM equal to -6.57

The value of inhibition at 1 µM measured for the molecule `COc1cc2ncnc(Nc3ccc(F)c(Cl)c3)c2cc1NC(=O)/C=C/CN1CCCCC1` turned out to be -3

GET /value?item= `C[C@H]1Oc2cc(cnc2N)-c2c(nn(C)c2C#N)CN(C)C(=O)c2ccc(F)cc21` &field=inhibition at 1 µM returns -3.36

response.value for `COc1ccc(CN2C3CC2CN(c2ccc(-c4cc(OCC(C)(C)O)cn5ncc(C#N)c45)cn2)C3)cn1` (field: inhibition at 1 µM) = -6

For record `COC(=O)N[C@@H](C)CNc1nccc(-c2cn(C(C)C)nc2-c2cc(Cl)cc(NS(C)(=O)=O)c2F)n1` the listed inhibition at 1 µM is -1.43

The reported inhibition at 1 µM of the molecule `Cc1cc(Nc2ncnc3ccc(NC4=NC(C)(C)CO4)cc23)ccc1Oc1ccn2ncnc2c1` was -3.72
